Items are presented alongside their recorded growth inhibition.
assay.overview: NCI Yeast Anticancer Drug Screen. Data for the bub3 strain (AID 167)
experimental.context: S. cerevisiae bub3 mutant strain, at 50.0 µM, active compounds read high
The panel holds about 79,000 compounds, 15% with a hit somewhere; the sample as a whole holds those more often.
Numeric answer only, unit % assumed.

Example cases with answers are listed next.
> print(dat)
                                    molecule  numeric.result
 1  COc1ccc(C2C(Cl)C(=O)N2NC(=O)c2ccc(NC(C)=O)cc2)cc1 (stereo not given)             -50
 2                CCOCCOC(=O)c1ccc(C(C)C)cc1            5.25
 3                       CCCCCC(Cl)(CC)CCCCC            1.45
 4  Cc1cc2c(cc1Cl)SC(NNc1cnc3ccccc3n1)=NS2(=O)=O            19.1
 5                      CCOC(=O)N/C=C/C(C)=O           -6.35
 6  O=C(Cl)C1CC=C2c3ccccc3CCC2C1C(=O)Cl (stereo not given)            15.1
 7      CCOC(=O)C/C(C)=C1/N=C(c2ccccc2)OC1=O              37
 8  CC(=O)Nc1ccc(S(=O)(=O)N/N=C(\C)c2csc3ccccc23)cc1           -4.05
 9                Clc1nncc2sc(-c3ccccc3)nc12            18.3
10  C=CCC(OC(=O)CC)c1ccc2c(c1)OCO2 (stereo not given)             9.3

Exercise: // returns reported growth inhibition for input `CC1(C)OC(C(F)(F)F)(C(F)(F)F)c2cc(C(C)(C)C)ccc2S1`
Solution: -1

Exercise: Again, but for `COC(=O)C(Cc1ccc2c(c1)CCC2)Cc1ccc2c(c1)CCC2`
Solution: 11.1

Exercise: Again, but for `Cc1ccc(NC(=O)C2c3ccccc3-c3ccccc32)cc1`
Solution: 10.9

Exercise: Again, but for `N#C/C(N)=C(\C#N)NC=NCc1ccccc1`
Solution: 26.3

Exercise: Again, but for `CCNC(=O)NCCN1CCOCC1`
Solution: 7.05

Exercise: Again, but for `BrCCOc1ccccc1`
Solution: -8.3

Exercise: Again, but for `O=C(O)CCC(=O)c1ccc2c3c(cccc13)CC2`
Solution: 21.5

Exercise: Again, but for `C=CCNC(=S)N/C=C\c1c(C(=O)O)cc([N+](=O)[O-])cc1[N+](=O)[O-]`
Solution: 3.2

Exercise: Again, but for `CC(C)=CC(=O)n1nc2c(c1CC(C)C)C(=O)C(Nc1ccccc1)=CC2=O`
Solution: 1.3
